- Method: qHTS for Inhibitors of the Functional Ribonucleoprotein Complex (vRNP) of Lassa (LASV) Arenavirus: LASV Primary Screen - GLuc reporter signal (AID 1347082); further: nearly all actives have a fitted effect of over 60% in size
- Conditions used: LASV minigenome vRNP, Gaussia luciferase reporter; series mostly up to 57.5 µM
Inconclusive results are not listed. Activity calls are given as the source filed them. The call rests on the fitted dose curve; tested in HEK293 reporter line.
Outcome codes: active, inactive

[
  {
    "Compound": "Nc1ncnc2c1nc(Cl)n2[C@@H]1O[C@H](CO)[C@@H](O)[C@@H]1O",
    "Class": "inactive"
  },
  {
    "Compound": "C=C1C(=O)[C@@]23C(CC[C@@H]1[C@H]2O)[C@@]12CO[C@]3(O)[C@@H](O)[C@@H]1C(C)(C)CC[C@@H]2O (some centres undefined)",
    "Class": "active"
  },
  {
    "Compound": "CCOC(=O)c1c(CSc2ccccc2)n(C)c2cc(Br)c(O)c(CN(C)C)c12",
    "Class": "inactive"
  },
  {
    "Compound": "CCN1CCN(C(=O)N[C@H](C(=O)N[C@@H]2C(=O)N3C(C(=O)O)=C(CSc4nnnn4C)CS[C@@H]23)c2ccc(O)cc2)C(=O)C1=O",
    "Class": "inactive"
  },
  {
    "Compound": "CC1(COc2ccc3c(c2)ncn3-c2ccc3cccc(N4CCC(N)CC4)c3n2)COC1",
    "Class": "active"
  },
  {
    "Compound": "O=C(/C=C/c1ccccc1)OC/C=C/c1ccccc1",
    "Class": "inactive"
  },
  {
    "Compound": "N[C@H](CSSC[C@@H](N)C(=O)O)C(=O)O",
    "Class": "inactive"
  },
  {
    "Compound": "C=C1[C@@H]2C[C@]3(C(CC2=O)[C@]24C5C[C@H]3[C@H]2N(CC)C[C@]5(C)CC[C@@H]4O)[C@@H]1O (some centres undefined)",
    "Class": "inactive"
  },
  {
    "Compound": "COc1cc2c(cc1OC)C1CC(=O)C(CC(C)C)CN1CC2 (centres undefined)",
    "Class": "inactive"
  }
]

====

- Test system: HeLa
- Method: Primary qHTS to identify gynecologic anti-cancer compounds using libraries of approved drugs and bioactive compounds (AID 1345084); further: nearly all actives have a fitted effect of over 55% in size
- Conditions used: Gynecologic cancer cell panel viability, ATPlite luminescence, 48 h; series mostly up to 57.5 µM
Inconclusive results are not listed. Activity calls are given as the source filed them. The call rests on the fitted dose curve; in most records, active means well fitted cell-killing curve with a large enough effect; inconclusive means small, poorly fitted or top-dose-only effect, or effect the other way; inactive means flat fitted curve, though single readings scatter.
Outcome codes: 1 (yes) (active), 0 (no) (inactive)

[
  {
    "Compound": "Cc1[nH]c2ccc(Cl)cc2c1CCN(C)C",
    "Class": "0 (no)"
  },
  {
    "Compound": "Oc1ccc2c3c1O[C@H]1c4[nH]c5c(N=C=S)cccc5c4C[C@@]4(O)[C@@H](C2)N(CC2CC2)CC[C@]314",
    "Class": "0 (no)"
  },
  {
    "Compound": "CCOC(=O)Nc1ccc(NCc2c(C)cc(C)cc2C)cc1N",
    "Class": "0 (no)"
  },
  {
    "Compound": "CC12CCC3C(C1)c1c(cc(O)c(C(=O)c4ccccc4)c1OC3(C)C)O2 (centres undefined)",
    "Class": "0 (no)"
  },
  {
    "Compound": "CN1CCCCC1Cn1cc(C(=O)c2cc([N+](=O)[O-])ccc2I)c2ccccc21 (centres undefined)",
    "Class": "0 (no)"
  },
  {
    "Compound": "CN1C(=O)CN=C(c2ccccc2Cl)c2cc(Cl)ccc21",
    "Class": "0 (no)"
  },
  {
    "Compound": "CCCCOC(=O)c1ccnc2cc(C(OCCN3CCCCC3)c3ccccc3Cl)sc12 (centres undefined)",
    "Class": "0 (no)"
  },
  {
    "Compound": "CC[C@H]1C2CC3[C@@H]4N(C)c5ccccc5[C@]45C[C@@H]([C@H]2[C@H]5O)N3[C@H]1O",
    "Class": "0 (no)"
  },
  {
    "Compound": "CC(=O)OC[C@]12C[C@H](OC(=O)CC(C)C)C(C)=C[C@H]1O[C@@H]1[C@H](O)[C@@H](O)[C@@]2(C)[C@]12CO2",
    "Class": "1 (yes)"
  }
]

====

- Tested on: Muscarinic acetylcholine receptor M1 (Rattus norvegicus) (UniProt P08482)
- Sequence (P08482 whole entry, looked up): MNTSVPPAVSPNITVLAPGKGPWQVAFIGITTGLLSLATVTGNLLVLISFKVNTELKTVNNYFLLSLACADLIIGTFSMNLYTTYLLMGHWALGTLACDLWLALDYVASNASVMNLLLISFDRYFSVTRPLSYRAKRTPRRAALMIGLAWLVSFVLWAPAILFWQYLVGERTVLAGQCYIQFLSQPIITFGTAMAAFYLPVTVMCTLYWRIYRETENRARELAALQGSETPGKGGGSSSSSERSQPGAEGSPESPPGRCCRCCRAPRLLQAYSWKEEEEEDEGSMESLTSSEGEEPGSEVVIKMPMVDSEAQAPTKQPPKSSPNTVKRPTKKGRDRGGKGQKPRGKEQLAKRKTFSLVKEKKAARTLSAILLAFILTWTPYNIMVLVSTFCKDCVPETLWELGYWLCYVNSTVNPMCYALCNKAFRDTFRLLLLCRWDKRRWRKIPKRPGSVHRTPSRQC
- Method: qHTS Assay for Antagonists of Acetylcholine Muscarinic M1 Receptor: Measurement of IP-One Response (AID 944); further: nearly all actives have a fitted effect of over 75% in size
- Conditions used: CHO-M1 cells, IP-One HTRF, antagonist mode; series mostly up to 46.1 µM
Inconclusive results are not listed. The source made the active and inactive calls. The call rests on the fitted dose curve; in most records, active means well fitted inhibition curve with a large enough effect; inconclusive means small, poorly fitted or top-dose-only effect; inactive means no such curve, though single readings can be large or run the other way.
Outcome codes: TRUE = active, FALSE = inactive

[
  {
    "Input smiles": "C[C@H](N)Cc1cnc[nH]1",
    "Class": "FALSE"
  },
  {
    "Input smiles": "C=CCN1CC[C@@]23c4c5ccc(O)c4O[C@H]2/C(=N\\N=C2/CC[C@@]4(O)[C@H]6Cc7ccc(O)c8c7[C@@]4(CCN6CC=C)[C@@H]2O8)CC[C@]3(O)[C@@H]1C5",
    "Class": "FALSE"
  },
  {
    "Input smiles": "N[C@H](C(=O)O)c1cc(=O)[nH]o1",
    "Class": "FALSE"
  },
  {
    "Input smiles": "COC(=O)N1CCN(C(=O)Cc2ccc(Cl)c(Cl)c2)[C@H](CN2CCCC2)C1",
    "Class": "FALSE"
  },
  {
    "Input smiles": "C[C@@H](Cc1ccc(OCC(=O)O)cc1)NC[C@H](O)c1cccc(Cl)c1",
    "Class": "TRUE"
  },
  {
    "Input smiles": "CC[C@]1(C2=NCCN2)Cc2ccccc2O1",
    "Class": "FALSE"
  },
  {
    "Input smiles": "C=C(C)[C@H]1CN[C@H](C(=O)O)[C@@H]1CC(=O)O",
    "Class": "FALSE"
  },
  {
    "Input smiles": "COc1cc(CCN)ccc1O",
    "Class": "FALSE"
  }
]

====

- Method: qHTS for Inhibitors of the Functional Ribonucleoprotein Complex (vRNP) of Lassa (LASV) Arenavirus: Viability assay - alamar blue signal for LASV Primary Screen (AID 1347083); further: nearly all actives have a fitted effect of over 80% in size
- Conditions used: cell viability, alamar blue fluorescence (LASV minigenome counter-screen); series mostly up to 57.5 µM
Records with an inconclusive call do not appear. Active and inactive are the calls of the source. Calls come from the whole dose curve; tested in HEK293 reporter line.
Outcome codes: active, inactive

[
  {
    "Compound": "N#Cc1c(NC(=O)c2cccc3ccccc23)sc2c1CCCC2",
    "Class": "active"
  },
  {
    "Compound": "C[C@@H]1CC[C@]2(C(=O)O[C@@H]3O[C@H](CO)[C@@H](O)[C@H](O)[C@H]3O)CC[C@]3(C)C(=CCC4[C@@]5(C)C[C@@H](O)[C@H](O)[C@@](C)(C(=O)O[C@@H]6[C@H](O)C[C@@]7(C)C(CC[C@]8(C)C7CC=C7[C@H]9[C@](C(=O)O[C@@H]%10O[C@H](CO)[C@@H](O)[C@H](O)[C@H]%10O)(CC[C@@H](C)[C@@]9(C)O)CC[C@]78C)[C@@]6(CO)C(=O)O)C5CC[C@]43C)[C@@H]2[C@]1(C)O (some centres undefined)",
    "Class": "inactive"
  },
  {
    "Compound": "O=C(O)[C@@H]1Cc2c([nH]c3ccccc23)C2CCC(=O)N21 (some centres undefined)",
    "Class": "inactive"
  },
  {
    "Compound": "NC(=O)c1cc[n+](CC2=C(C(=O)O)N3C(=O)[C@@H](NC(=O)[C@@H](c4ccccc4)S(=O)(=O)[O-])[C@H]3SC2)cc1",
    "Class": "inactive"
  },
  {
    "Compound": "CC(C)(C)NCC(O)COc1cccc2[nH]c(=O)[nH]c12 (centres undefined)",
    "Class": "inactive"
  },
  {
    "Compound": "C[C@H]1[C@H](O)O[C@@H]2O[C@@]3(C)CC[C@@H]4[C@H](C)CC[C@@H]1[C@@]24OO3",
    "Class": "active"
  },
  {
    "Compound": "CCCCCCCCCCCC(C)=O",
    "Class": "inactive"
  },
  {
    "Compound": "C[C@@H]1C(=O)O[C@H]2CC34[C@H]5C[C@@H](C(C)(C)C)C36[C@H](OC(=O)[C@@H]6O)O[C@@]4(C(=O)O5)[C@]21O (some centres undefined)",
    "Class": "inactive"
  },
  {
    "Compound": "CN1CC(=O)N2C(Cc3c([nH]c4ccccc34)[C@H]2c2ccc3c(c2)OCO3)C1=O (some centres undefined)",
    "Class": "inactive"
  }
]

====

- Test system: HaCat
- Method: Cytotoxic Profiling of Annotated Libraries Using Quantitative High-Throughput Screening (AID 1296008); further: on the % scale 0 is the no-effect control and ±100 the full control effect; nearly all actives have a fitted effect of over 60% in size
- Conditions used: Five cell lines viability, CellTiter-Glo ATP luminescence, 48-72 h; stronger effect = lower value
Inconclusive results are not listed. *1 amine or outer side, *2 acyl side, *3 side chain or, on linkers, in order; H or OH if unused. Where a SMILES comes first, the peptide text is derived from it. [ ]: non-standard residue; d: D form. Ala(indol-2-yl) = N[C@@H](Cc1cc2ccccc2[nH]1)C(=O)O; X7 = O=C([C@@H](CC(O)CCl)O[*:1])[*:2]; aIle = CC[C@@H](C)[C@H](N)C(=O)O; NMeV = CN[C@H](C(=O)O)C(C)C; NMeA = CN[C@@H](C)C(=O)O; Aib = CC(C)(N)C(=O)O; βAla = NCCC(=O)O
Quantity: max response (%)

[
  {
    "Compound": "CCC1=CC2CN3CCc4c([nH]c5ccccc45)[C@@](C(=O)OC)(C2)[C@@H]13",
    "Numeric value": -7.15
  },
  {
    "Compound": "O=C(OC[C@H]1O[C@@H](Oc2ccc(O)cc2CO)[C@H](O)[C@@H](O)[C@@H]1O)c1ccccc1",
    "Numeric value": -28.3
  },
  {
    "Compound": "CC(C)(C)[C@]1(O)C[C@@H]2OC(=O)C[C@@]23C(=O)O[C@@H]2OC(=O)[C@@H](O)[C@]213",
    "Numeric value": -5.58
  },
  {
    "Compound": "CC(=O)O[C@H]1C(=O)[C@]2(C)C(O)C[C@H]3OC[C@@]3(OC(C)=O)[C@H]2[C@H](OC(=O)c2ccccc2)[C@]2(O)C[C@H](O)C(C)=C1C2(C)C (stereo not given in full)",
    "Numeric value": -29.4
  },
  {
    "Compound": "CC1(C)C(=O)N(c2ccc(C#N)c(C(F)(F)F)c2)C(=O)N1CCCCO",
    "Numeric value": -18.8
  },
  {
    "Compound": "C[C@H](CCC(=O)O)C[C@H](C)C[C@H](C)C(=O)/C=C(\\O)[C@H](C)C[C@H](C)C/C=C/[C@@H](C)[C@@H](O)[C@@H](C)[C@@H](O)C[C@@H]1CC[C@@](C)([C@H]2CC[C@@](C)([C@@H](C)O)O2)O1",
    "Numeric value": -1.41
  },
  {
    "Compound": "CC[C@@H](C)[C@@H]1NC(=O)[C@@H]2CCCN2C(=O)[C@@H](CC(O)CCl)OC(=O)CCNC(=O)[C@H](C)N(C)C(=O)[C@H](C(C)C)N(C)C1=O (stereo not given in full) (cyclo([NMeA][βAla][X7]P[aIle][NMeV]))",
    "Numeric value": -21.3
  },
  {
    "Compound": "O=C(CC1NCCC[C@H]1O)Cn1cnc2cc(Br)c(Cl)cc2c1=O (stereo not given in full)",
    "Numeric value": -11.7
  },
  {
    "Compound": "COc1cc(N2CCN(C)CC2)ccc1N",
    "Numeric value": 1.34
  },
  {
    "Compound": "CC[C@@H]1/C=C/C=C/C[C@H](C)C(O)[C@](C)(O)C(=O)[C@H](C)C(O)[C@H](C)C(=O)[C@H](C)[C@@H](O)[C@H](C)/C=C/C(=O)O[C@H]2[C@@H](C)[C@@H](CC1)O[C@]1(O[C@H](C[C@H](C)O)[C@H](C)CC1=O)[C@@H]2C (stereo not given in full)",
    "Numeric value": -17.7
  },
  {
    "Compound": "CC12Cc3cn[nH]c3C=C1CCC1C2CCC2(C)C1CCC2(C)O (stereo not given)",
    "Numeric value": -0.609
  },
  {
    "Compound": "CN1C2CCC1CC(OC(=O)N1Cc3ccccc3NC1=O)C2 (stereo not given)",
    "Numeric value": 2.89
  },
  {
    "Compound": "C[C@]12CCC(=O)C=C1CC[C@@H]1[C@@H]2[C@@H](O)C[C@]2(C)C(=O)CC[C@@H]12",
    "Numeric value": -8.66
  },
  {
    "Compound": "Cc1sc2c(c1C)C(c1ccc(Cl)cc1)=N[C@@H](CC(N)=O)c1nnc(C)n1-2",
    "Numeric value": -29.9
  },
  {
    "Compound": "CC(C)(NC(=O)[C@@H](N)Cc1ccc(O)cc1)C(=O)N[C@@H](Cc1cc2ccccc2[nH]1)C(=O)N[C@@H](Cc1ccccc1)C(=O)O (H-Y[Aib][Ala(indol-2-yl)]F-OH)",
    "Numeric value": -4.8
  }
]
